All values here come from PubChem BioAssay AID2060493.

system: 616215-338-R-J1-PDC tumor spheroids, viability; assay: Anticancer human tumor 616215-338-R-J1-PDC patient-derived colon adenocarcinoma cell line growth inhibition [GQUAD]; details: curve of first compound; second compound 0.316 µM; spheroids with HUVEC and MSC;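 further: spheroids exposed to agents for 7 days before readout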
pIC50: −log10 of the molar value.
compounds and their reported pIC50

| COMPOUND | pIC50 |
| --- | --- |
| CC1COCCN1c1cc(C2(O)CC3CCC(C2)O3)c2cnn(-c3ccn[nH]3)c2n1 (stereo not given) + Cc1cnc(CNC(=O)c2c(=O)c3ccc(N4CCCN(C)CC4)nc3n3c2sc2ccccc23)cn1 | > 7.50 |
| C=CC(=O)N1CCN(c2nc(=O)n(-c3c(C)ccnc3C(C)C)c3nc(-c4c(O)cccc4F)c(F)cc23)C(C)C1 (stereo not given) + Cc1[nH]c2ccc(F)cc2c1-c1nc2c3cccnc3c3ncccc3c2[nH]1 | < 5.00 |
| O=C(c1cc(Cc2n[nH]c(=O)c3ccccc23)ccc1F)N1CCN(C(=O)C2CC2)CC1 + CN(C)c1ccc(Nc2c3ccc(NC(=O)CCN4CCCC4)cc3nc3cc(NC(=O)CCN4CCCC4)ccc23)cc1 | < 5.00 |
| Cn1ncnc1[C@H]1c2n[nH]c(=O)c3cc(F)cc(c23)N[C@@H]1c1ccc(F)cc1 + Cc1[nH]c2ccc(F)cc2c1-c1nc2c3cccnc3c3ncccc3c2[nH]1 | < 6.50 |

Then this compound:
Consider the compound CC1COCCN1c1cc(-c2ccnn2C)c2ccnc(-c3ccn[nH]3)c2n1 (stereo not given) + CN(C)c1ccc(Nc2c3ccc(NC(=O)CCN4CCCC4)cc3nc3cc(NC(=O)CCN4CCCC4)ccc23)cc1 and give its recorded pIC50.
6.79
